Test system: MS2 coat protein
assay: apparent KD of MS2 coat protein; designed switch direction (-1 OFF switch, 1 ON switch): -1; higher = weaker reporter binding
assay.setup: input ligand: none
Here, each record is paired with measured apparent KD of MS2 coat protein data.
Give your result in nM as a bare value.

Solved cases (3 shown):
GUUUGCAGACGGAGAUCCUACAUGAGGAUCACCCAUGUCUCACUAGCUUUUUGCUCGUCUUAUCCUCCUCUGUUCUC [Elimod 27 - Jieux - Sensor, turn-off variant 1] (Eterna round: R97, puzzle: Sensor, turn-off variant 1)    303
UUUACAAGCUAUUGAUCCCACAUGAGGAUCACCCAUGUUGCUGCCGUGAGGUAGCUUUUAACAAUUGCUCGUCUUAU [JL TOV1 3.38] (Eterna round: R97, puzzle: Sensor, turn-off variant 1)    570
AGGUGUAGAGGAUAUACAGUGUAUUACAUGAGGAUCACCCAUGUCCCUCAAUGAGUGUCAGUAGAAGGCUACACCA [Omei Ex5 C3] (Eterna round: R97, puzzle: Exclusion 5)    403

Quick one: apparent KD of MS2 coat protein of UUCUUUAUACGAGGAUAUCAUACAUGAGGAUCACCCAUGUGGCUGGGUCUGUUUUUAUAUAAUAUUGAGAAGGCGUUUUUCUAU [JR_ExcNG2_Sub073] (Eterna round: R96, puzzle: Exclusion NG 2) ?
78.9
